Sourced from the supplement of paper PMC10307832

# relative viability values compiled below
# Test system: Calu-6
# experimental_details: relative viability (nuclei count vs DMSO), 5 days (fraction); higher = more cells survive
# particulars: first compound 0.1 µM
No unit in the answer, only the number.

### Prompt Quick check: relative viability on Calu-6, item O=c1cc(N2CCOCC2)oc2c(-c3cccc4c3sc3ccccc34)cccc12 + COc1cc2c(Oc3ccc(NC(=O)C4(C(=O)Nc5ccc(F)cc5)CC4)cc3F)ccnc2cc1OCCCN1CCOCC1 [Foretinib] (partner 0.25 µM) ?
### Response 0.891

----------
We begin with a simple list: items and their reported relative viability.
# System: UMC-11
# experimental_details: relative viability (nuclei count vs DMSO), 5 days (fraction); higher = more cells survive
# particulars: first compound 2.53 µM

| compound | relative viability |
| --- | --- |
| COc1nc(C)cnc1NS(=O)(=O)c1cccnc1-c1ccc(-c2nnco2)cc1 [Zibotentan] + Cc1nc(NC(=O)N2CCC[C@H]2C(N)=O)sc1-c1ccnc(C(C)(C)C(F)(F)F)c1 [Alpelisib] (partner 2 µM) | 0.971 |

### Prompt Recorded relative viability for O=c1cc(-c2cccc3c2Sc2ccccc2S3)oc(N2CCOCC2)c1 + C[C@@H](Oc1cc(-c2cnn(C3CCNCC3)c2)cnc1N)c1c(Cl)ccc(F)c1Cl [Crizotinib] (partner 1 µM) , please?
### Response 0.644

### Prompt For O=c1cc(-c2cccc3c2Sc2ccccc2S3)oc(N2CCOCC2)c1 + COc1cc2c(Oc3ccc(NC(=O)C4(C(=O)Nc5ccc(F)cc5)CC4)cc3F)ccnc2cc1OCCCN1CCOCC1 [Foretinib] (partner 0.25 µM) then?
### Response 1.03

### Prompt Subsequent entry: O=c1cc(-c2cccc3c2Sc2ccccc2S3)oc(N2CCOCC2)c1 + CC(C)C[C@H](NC(=O)[C@H](Cc1ccccc1)NC(=O)c1cnccn1)B(O)O [Bortezomib] (partner 0.002 µM)
### Response 0.535

----------
# Tested on: LCLC-97TM1
# experimental_details: relative viability (nuclei count vs DMSO), 5 days (fraction); higher = more cells survive
# particulars: first compound 0.3162 µM
quantity: relative viability
Write the number on its own, no unit after it.

| compound | relative viability |
| --- | --- |
| O=c1cc(N2CCOCC2)oc2c(-c3cccc4c3sc3ccccc34)cccc12 + COc1cc2c(Oc3ccc(NC(=O)C4(C(=O)Nc5ccc(F)cc5)CC4)cc3F)ccnc2cc1OCCCN1CCOCC1 [Foretinib] (partner 0.25 µM) | 0.897 |
| CCN(CC)CCCCNc1ncc2cc(-c3cc(OC)cc(OC)c3)c(NC(=O)NC(C)(C)C)nc2n1 + Cc1nc(Nc2ncc(C(=O)Nc3c(C)cccc3Cl)s2)cc(N2CCN(CCO)CC2)n1 [Dasatinib] (partner 0.075 µM) | 0.934 |
| CCN(CC)CCCCNc1ncc2cc(-c3cc(OC)cc(OC)c3)c(NC(=O)NC(C)(C)C)nc2n1 + Nc1nc2[nH]cc(CCc3ccc(C(=O)N[C@@H](CCC(=O)O)C(=O)O)cc3)c2c(=O)[nH]1 [Pemetrexed] (partner 0.2 µM) | 0.159 |

### Prompt What value of relative viability has been recorded for this entry: O=c1cc(N2CCOCC2)oc2c(-c3cccc4c3sc3ccccc34)cccc12 + CCNC(=O)c1noc(-c2cc(C(C)C)c(O)cc2O)c1-c1ccc(CN2CCOCC2)cc1 [Luminespib] (partner 0.01 µM)
### Response 0.759
